From: PubChem BioAssay (NCI)

System: HCT-116 colon
assay procedure: NCI tumour cell line growth inhibition, 48 h
measurement kind: TGI

| molecule | TGI |
| --- | --- |
| O=C(N/N=C1\CCc2ccccc21)N/N=C1\CCc2ccccc21 | > 100 µM |
| N/C(=N/O)c1cn(C2OC(CO)C(O)C2O)c2ncnc(NO)c12 (stereo not drawn) | > 77.4 µM |

Let's switch to this molecule now.
input: Reported TGI for HCT-116 colon, given COC(=O)C(NC(=O)C12CCC(C)(C(=O)O1)C2(C)C)c1cc(C(C)(C)C)c(O)c(C(C)(C)C)c1 (stereo not drawn) ?
output: > 100 µM

###

Tested on: TK-10 renal
assay procedure: NCI tumour cell line growth inhibition, 48 h
Listed next: entries and their corresponding TGI.
Answer with a number only, understood to be in µM.

| compound | TGI (µM) |
| --- | --- |
| CCOP(=O)(OCC)OC1CC(n2cnc3c(N(CC)CC)ncnc32)OC1CO[Si](C)(C)C(C)(C)C (configuration not stated) | 33 |
| CC[C@]12C=CCN3CC[C@]4(C(=C(C(=O)OC)C1)Nc1ccccc14)[C@@H]32 | 17.6 |
| O=C1Nc2ccccc2/C1=C\c1c(Cl)[nH]c2ccccc12 | 6.65 |
| CC(C)c1cc(C(C)C)c(P2(=O)CC3C(Cl)(Cl)C3(C)C2)c(C(C)C)c1 (configuration not stated) | 24.5 |
| OCCC#Cc1ccccc1C#Cc1ccccc1 | 23.4 |

input: Entry under review: `O=Cc1cc(O)ccc1Br` . Reported TGI?
output: 99

input: Another compound: `C/C=C(\C)C(=O)O[C@@H]1C=CC(=O)O[C@H]1COC(=O)[C@H](C)O`
output: 25.8
